# test: qHTS Assay for Lipid Storage Modulators (AID 1519)
# condition description: Drosophila S3 cells, BODIPY lipid droplet/cell ratio, laser cytometry; measured here: lipid channel max response; cells loaded with oleic acid
Results filed as inconclusive are left out.

| molecule | max response |
| --- | --- |
| COc1cc2c(c(OC)c1OC)-c1ccc(O)c(=O)cc1C(NC(C)=O)CC2 (stereo unspecified) | 36.3% |
| CNC(=O)Oc1ccc2c(c1)[C@@]1(C)CCN(C)C1N2C (stereo partly specified) | 14.3% |
| c1cnc(N2CC[C@@]3(CCCNC3)C2)nc1 | 29% |
| CC1=C2CCC3C4CCC(=O)[C@@]4(C)CCC3[C@]2(C)CCC1=O (stereo partly specified) | 8.56% |
| COc1cc2c(c(OC)c1OC)-c1ccc(OC)c(=O)cc1[C@H](NC(C)=O)CC2 | -22.5% |
| CC(=O)OC1C(=O)[C@]2(C)C(O)CC3OC[C@]3(OC(C)=O)C2[C@@H](OC(=O)c2ccccc2)[C@]2(O)CC(O)C(C)=C1C2(C)C (stereo partly specified) | 6.64% |
| CC(C)c1cc2c(c(O)c1O)[C@]1(C(=O)O)CCCC(C)(C)C1CC2 (stereo partly specified) | -4.62% |
| CC[C@@H](CO)NC(=O)[C@H]1C=C2c3cccc4c3c(cn4C)C[C@H]2N(C)C1 | 22.3% |
| Cc1c(O)c(O)cc2c1CC=C1[C@]3(C)CC[C@]4(C)CC[C@@](C)(C(=O)O)CC4[C@]3(C)CC[C@]12C (stereo partly specified) | 14.7% |
| ClC1=C(Cl)C2(Cl)C3C4C=CC(C4)C3C1(Cl)C2(Cl)Cl (stereo unspecified) | 23.4% |
| COc1cc(C=C(C#N)C#N)cc(O)c1O | 22.3% |
| C[C@@H]1O[C@H](O[C@H]2C[C@@H](O)[C@@]3(CO)[C@H]4[C@@H](O)C[C@]5(C)[C@@H](C6=CC(=O)OC6)CC[C@]5(O)[C@H]4CC[C@]3(O)C2)[C@@H](O)[C@H](O)[C@@H]1O | -4.25% |
| COc1cc2c3cc1Oc1c(OC)c(OC)cc4c1C(Cc1cccc(c1)Oc1ccc(c(O)c1)CC3N(C)CC2)N(C)CC4 (stereo unspecified) | 22.7% |
| CC1(C)C(=O)C=C[C@@]2(C)C1CC(O)[C@]1(C)C2CC[C@@]2(C)C(c3ccoc3)OC(=O)C3O[C@]312 (stereo partly specified) | 11.5% |
| COc1cc2c(cc1-c1cc3cc4ccoc4cc3oc1=O)OCO2 | 25.9% |
| O=C1C=C2C=C[C@H]3C[C@@]2(O1)[C@H]1CCCCN31 | -17.3% |
| O=S1OCC2C(CO1)C1(Cl)C(Cl)=C(Cl)C2(Cl)C1(Cl)Cl (stereo unspecified) | 5.32% |
| COc1ccc2cc1Oc1ccc(cc1)CC1c3cc(c(OC)cc3CCN1C)Oc1c(OC)c(OC)cc3c1C(C2)N(C)CC3 (stereo unspecified) | 6.79% |
| C#CCN(C)[C@@H](C)Cc1ccccc1 | -0.249% |
| CC(=O)OC1C[C@H](O[C@@H]2C(O)C[C@H](O[C@@H]3C(O)C[C@@H](OC4CC[C@]5(C)C(CCC6C5CC(O)[C@@]5(C)C(C7=CC(=O)OC7)CC[C@@]65O)C4)OC3C)OC2C)O[C@H](C)[C@H]1O[C@H]1OC(CO)C(O)C(O)C1O (stereo partly specified) | 24.4% |
| O=C(Nc1cccc(F)c1)N1CC2(CCN(C(=O)Oc3ccccc3)CC2)C1 | -1.47% |
| O=C(CC[N+](=O)[O-])OCC1OC(O)C(OC(=O)CC[N+](=O)[O-])[C@@H](OC(=O)CC[N+](=O)[O-])C1OC(=O)CC[N+](=O)[O-] (stereo partly specified) | 17.5% |
| CNC(=O)CSP(=S)(OC)OC | 8.94% |
| CC1CC2CC(=O)C3CCCN4CCCC2[C@]34C1 (stereo partly specified) | 11.3% |
| CN1CCc2cc3c(cc2[C@@H]1[C@@H]1OC(=O)c2c1ccc1c2OCO1)OCO3 | -5.44% |
| CC1(C)C(=O)C=C[C@@]2(C)C1=C(O)C(=O)[C@@]1(C)C2CC[C@@]2(C)C(c3ccoc3)C[C@H]3O[C@@]321 (stereo partly specified) | 3.61% |
| O=C(c1ccncc1)N1CCC2(CC1)CN(Cc1ccccc1)C2 | -4.05% |
| CC(C)CN1CCC2(CC1)CCN(C(=O)Oc1ccccc1)CC2 | 1.23% |
| CN1CC[C@]2(C)c3cc(O)ccc3N(C)[C@@H]12 | -17.5% |
| CC[C@@H]1CN2CC[C@@H]1C[C@H]2[C@H](O)c1ccnc2ccc(OC)cc12 | 1.41% |
| C[C@H]1CC[C@@]2(NC1)O[C@@H]1C[C@H]3[C@@H]4CC=C5C[C@@H](O)CC[C@]5(C)[C@@H]4CC[C@]3(C)[C@@H]1[C@@H]2C | -7.85% |
| c1ccc2c(c1)[nH]c1cnccc12 | -6.47% |
| CNCC[C@@H](Oc1ccc(C(F)(F)F)cc1)c1ccccc1 | -28.9% |
| C[N+]1([O-])[C@@H]2CC(OC(=O)[C@@H](CO)c3ccccc3)C[C@@H]1[C@H]1O[C@H]12 (stereo partly specified) | 27.4% |
| CC[C@H](CO)NC(=O)[C@H]1C=C2c3cccc4[nH]cc(c34)C[C@@H]2N(C)C1 | 2.54% |
| COc1cc2c(c(OC)c1OC)-c1ccc(O)c(=O)cc1[C@@H](NC(C)=O)CC2 | 20.6% |
